Cited source: patent US20240043420A1

# Test system: ABL1 (T315I) (Homo sapiens, UniProt P00519, T315I)
# Test description: Luminescence-based ABL kinase assay (ADP-Glo, 300 μM ATP), T315I mutant
# Format: biochemical
Property: IC50
Include the unit after the number when you answer.

Reference set, count: 10
{"Molecule": "COc1nccc(OC2CC2)c1-c1c[nH]c2nc(NC(=O)[C@@H]3C[C@H]3OCCN(C)C)ccc12 [Compound 253]", "Test system": "ABL1 (T315I) (Homo sapiens, UniProt P00519, T315I)", "Observed": "8.81 nM"}
{"Molecule": "CNCCCNC(=O)Nc1ccc2c(-c3c(OC)cccc3OC)c[nH]c2n1 [Compound 130]", "Test system": "ABL1 (T315I) (Homo sapiens, UniProt P00519, T315I)", "Observed": "33.7 nM"}
{"Molecule": "COc1cc2ncsc2cc1-c1c[nH]c2nc(NC(=O)NCCN3CCNCC3)ccc12 [Compound 139, bis(formic acid)]", "Test system": "ABL1 (T315I) (Homo sapiens, UniProt P00519, T315I)", "Observed": "16.8 nM"}
{"Molecule": "CCOc1ncccc1-c1c[nH]c2nc(NC(=O)[C@H]3C[C@H]3F)ccc12 [Compound 63]", "Test system": "ABL1 (T315I) (Homo sapiens, UniProt P00519, T315I)", "Observed": "64.5 nM"}
{"Molecule": "COc1ccccc1-c1c[nH]c2nc(NC(=O)NC3CC3)ccc12 [Compound 123]", "Test system": "ABL1 (T315I) (Homo sapiens, UniProt P00519, T315I)", "Observed": "17.6 nM"}
{"Molecule": "COc1ccccc1-c1c[nH]c2nc(NC(=O)NCCC3CCN(C4COC4)CC3)ccc12 [Compound 110]", "Test system": "ABL1 (T315I) (Homo sapiens, UniProt P00519, T315I)", "Observed": "18.2 nM"}
{"Molecule": "COc1c(-c2c[nH]c3nc(NC(=O)[C@@H]4C[C@@H]4F)ccc23)cc2scnc2c1F [Compound 133]", "Test system": "ABL1 (T315I) (Homo sapiens, UniProt P00519, T315I)", "Observed": "6.1 nM"}
{"Molecule": "COc1nc2nc[nH]c2cc1-c1c[nH]c2nc(NC(=O)C3CC3)ccc12 [Compound 61]", "Test system": "ABL1 (T315I) (Homo sapiens, UniProt P00519, T315I)", "Observed": "5.08 nM"}
{"Molecule": "COc1nc2[nH]ccc2cc1-c1c[nH]c2nc(NC(=O)[C@@H]3C[C@@H]3F)ccc12 [Compound 93]", "Test system": "ABL1 (T315I) (Homo sapiens, UniProt P00519, T315I)", "Observed": "2.94 nM"}
{"Molecule": "CNc1ccc(-c2c[nH]c3nc(NC(=O)C4CC4)ccc23)c(OC)n1 [Compound 30]", "Test system": "ABL1 (T315I) (Homo sapiens, UniProt P00519, T315I)", "Observed": "90.2 nM"}

Please report IC50 for every entry that follows.
1. COc1ncccc1-c1c[nH]c2nc(NC(=O)C3CC3)ccc12 [Compound 14]
2. O=C(Nc1ccc2c(-c3c(F)cccc3OC3CC3)c[nH]c2n1)[C@@H]1C[C@@H]1F [Compound 127]
3. CN(C)c1ncccc1-c1c[nH]c2nc(NC(=O)C3CC3)ccc12 [Compound 65]
4. COc1cc2ocnc2cc1-c1c[nH]c2nc(NC(=O)[C@@H]3C[C@@H]3F)ccc12 [Compound 88]

Solution:
["52.8 nM", "0.745 nM", "8700 nM", "30.9 nM"]

Please report IC50 for every entry that follows.
1. O=C(Nc1ccc2c(-c3cccnc3OC(F)F)c[nH]c2n1)C1CC1 [Compound 48]
2. O=C(Nc1ccc2c(-c3ccccc3F)c[nH]c2n1)C1CC1 [Compound 5]
3. COc1nc2[nH]cnc2cc1-c1c[nH]c2nc(NC(=O)[C@@H]3C[C@@H]3F)ccc12 [Compound 83]
4. COc1cc2ncsc2cc1-c1c[nH]c2nc(NC(=O)[C@@H]3C[C@@H]3F)ccc12 [Compound 86]
5. Cc1ccccc1-c1c[nH]c2nc(NC(=O)C3CC3)ccc12 [Compound 4]
6. O=C(Nc1ccc2c(-c3c(F)cccc3F)c[nH]c2n1)C1CC1 [Compound 46]

Solution:
["244 nM", "32.9 nM", "1.74 nM", "5.48 nM", "32.3 nM", "20.6 nM"]
